pKi: −log10 of the molar value.
The following are reported pKi results, target or system Thyrotropin-releasing hormone receptor (Rattus norvegicus).

- molecule: "NC(=O)[C@@H]1CCCN1C(=O)[C@H](Cc1cnc[nH]1)NC(=O)[C@@H]1CCC(=O)N1 [PROTIRELIN]"
  cmp: "="
  pKi: 7.37
- molecule: "NC(=O)c1ccc[n+](C[C@H](NC(=O)[C@@H]2CCC(=O)N2)C(=O)N2CCC[C@H]2C(N)=O)c1.O=C([O-])C(F)(F)F"
  cmp: "<"
  pKi: 5.00

* * *

protocol: Half-life of compound in rat brain homogenate was determined
Format: ADME, tissue-based
quantityName: half-life

- compoundString: "NC(=O)[C@@H]1CCCN1C(=O)[C@H](Cc1cnc[nH]1)NC(=O)[C@@H]1CCC(=O)N1"
  quantityName: "half-life"
  measValue: "16 min"
